Test system: HCT-116 colon
Experiment: NCI tumour cell line growth inhibition, 48 h
RECORDED_ENDPOINT: TGI (µM)
Express your answer in µM, writing the number without its unit.

Some compounds with known TGI results, for comparison:
# COMPOUND, RECORDED_ENDPOINT, REPORTED_RESULT
rows = [
    ("Brc1ccc2c(c1)-c1ccccc1C1=NCCN12", "TGI", 10.2),
    ("COc1ccc(C[C@H](N)C(=O)N[C@@H]2[C@@H](CO)OC(n3cnc4c(N(C)C)ncnc43)[C@@H]2O)cc1 (stereo partly specified)", "TGI", 0.628),
    ("Oc1ccc(/C=N/Nc2nnc(N/N=C/c3ccc(O)cc3O)c3ccccc23)c(O)c1", "TGI", 2.16),
    ("COC(=O)/C(=C/c1ccc(OC)cc1)c1cc(OC)c(OC)c(OC)c1", "TGI", 55.3),
    ("O=C1c2sccc2C(=O)c2c(CO)csc21", "TGI", 9.47),
    ("N#Cc1c(N/N=C/c2c(Cl)cccc2Cl)nc(N)nc1N1CCCC1", "TGI", 16.8),
]

Switching to the query record.
Q: Item CC(C)C12CCC3(CCC4C(C)(C(=O)O)CCCC4(C)C3C1)C(CN)C2 (stereo unspecified) has what recorded TGI?
A: 34.2

* * *

We begin with a simple list: items and their reported TGI.
Tested on: NCI-H226 lung
Experiment: NCI tumour cell line growth inhibition, 48 h
Express your answer in µM, writing the number without its unit.

Some molecules with known TGI results, for comparison:
# MOLECULE, MEASUREMENT_TARGET, RECORDED_ENDPOINT, REPORTED_RESULT
measured = [
    ("COc1ccc(C[C@H](N)C(=O)N[C@@H]2[C@@H](CO)OC(n3cnc4c(N(C)C)ncnc43)[C@@H]2O)cc1 (some centres undefined)", "NCI-H226 lung", "TGI", 1.27),
    ("Cc1cc(N(CCCl)CCCl)ccc1/C=N\\NC(=O)c1cccnc1", "NCI-H226 lung", "TGI", 2.8),
    ("CC(=O)OC1CCC2(C)C(=CCC3C4CC(CN5CC5)C(=O)C4(C)CCC32)C1 (centres undefined)", "NCI-H226 lung", "TGI", 40.2),
]

Switching to the query record.
Q: Item CCOC(=O)C(NC(=O)c1cccc(Cl)c1)(N1CCN(c2cc3c(cc2F)c(=O)c(C(=O)O)cn3CC)CC1)C(F)(F)F (centres undefined) has what recorded TGI?
A: 40.1

* * *

Test system: NCI-H226 lung
Experiment: NCI tumour cell line growth inhibition, 48 h
RECORDED_ENDPOINT: TGI (µM)
Express your answer in µM, writing the number without its unit.

# STRUCTURE, TGI (µM)
data = [
    ("Oc1ccc(/C=N/Nc2nnc(N/N=C/c3ccc(O)cc3O)c3ccccc23)c(O)c1", 6.98),
    ("O=C(Nc1ccccc1)Oc1ccccc1C1CCCCC1", 37.6),
    ("CC(=O)OCc1cc2c(s1)C(=O)c1sccc1C2=O", 1.24),
    ("COC(=O)/C(=C/c1ccc(OC)cc1)c1cc(OC)c(OC)c(OC)c1", 42.3),
]

Q: Give recorded TGI with NCI-H226 lung for the following compound: `COc1cc(-c2nn(-c3cccc(NC(=O)c4cccc(C(F)(F)F)c4)c3)cc2-c2ccncc2)ccc1Cl`
A: 27
